Data origin, for the record: patent US20230201217A1

For each record, write down the corresponding AUC(0-inf).
Assay: Phase 1 first-in-human study, pharmacokinetics in plasma
Conditions: both, human, plasma, po, 20 mg

Answered cases to consult:
COCCC1CC2CN3C=Cc4c([nH]c5ccccc45)C(C(=O)OC)(C2)C13 (stereo not drawn) [M4] ... 2800 ng·h/mL
COC(=O)C12CC3CC(CC(=O)O)C1N(CCc1c2[nH]c2ccccc12)C3 (stereo not drawn) [M5] ... 395 ng·h/mL

// next item, AUC(0-inf) requested
Incoming: Item under review: COC(=O)C12CC3CC(CCO)C1N(C=Cc1c2[nH]c2ccccc12)C3 (stereo not drawn) [M2] . Reported AUC(0-inf)?
Outgoing: 678 ng·h/mL
